Values compiled from paper PMC8753592.

Experiment: Pilot pharmacokinetic study, single subcutaneous administration
Conditions: male, Indian origin, rhesus monkey, in vivo, 100 mg/kg, Plasma GS-CA1 level, 100 mg/kg s.c.; 5 weeks post dose; individual animals; unit inferred
OUTCOME MEASURE: concentration at 5 weeks (nM)

>>> measured_result("CC(C)(C#Cc1ccc(-c2ccc(Cl)c3c(NS(=O)(=O)C4CC4)nn(CC(F)F)c23)c([C@H](Cc2cc(F)cc(F)c2)NC(=O)Cn2nc(C(F)F)c3c2C(F)(F)[C@@H]2C[C@H]32)n1)S(C)(=O)=O [GS-CA1]")
93.4

====

Test: Pilot pharmacokinetic study, single subcutaneous administration
Conditions: male, Indian origin, rhesus monkey, in vivo, 100 mg/kg, Plasma GS-CA1 level, 100 mg/kg s.c.; 10 weeks post dose; individual animals; unit inferred
OUTCOME MEASURE: concentration at 10 weeks

>>> measured_result("CC(C)(C#Cc1ccc(-c2ccc(Cl)c3c(NS(=O)(=O)C4CC4)nn(CC(F)F)c23)c([C@H](Cc2cc(F)cc(F)c2)NC(=O)Cn2nc(C(F)F)c3c2C(F)(F)[C@@H]2C[C@H]32)n1)S(C)(=O)=O")
"40.7 nM"

====

Test: Pilot pharmacokinetic study, single subcutaneous administration
Conditions: male, Indian origin, rhesus monkey, in vivo, 100 mg/kg, Plasma GS-CA1 level, 100 mg/kg s.c.; 12 weeks post dose; individual animals; unit inferred
OUTCOME MEASURE: concentration at 12 weeks (µM)

>>> measured_result("CC(C)(C#Cc1ccc(-c2ccc(Cl)c3c(NS(=O)(=O)C4CC4)nn(CC(F)F)c23)c([C@H](Cc2cc(F)cc(F)c2)NC(=O)Cn2nc(C(F)F)c3c2C(F)(F)[C@@H]2C[C@H]32)n1)S(C)(=O)=O")
0.018

====

Assay: Plasma GS-CA1 pharmacokinetics in the repeat SHIV challenge study
Assay type: in vivo, rhesus macaques of Indian origin
Settings: both sexes, Indian origin, rhesus monkey, in vivo, sc, 150 mg/kg, 150 mg/kg single s.c., n=8, mean ± SD
OUTCOME MEASURE: Tmax

>>> measured_result("CC(C)(C#Cc1ccc(-c2ccc(Cl)c3c(NS(=O)(=O)C4CC4)nn(CC(F)F)c23)c([C@H](Cc2cc(F)cc(F)c2)NC(=O)Cn2nc(C(F)F)c3c2C(F)(F)[C@@H]2C[C@H]32)n1)S(C)(=O)=O")
"~24 h"

====

Assay: Pilot pharmacokinetic study, single subcutaneous administration
Settings: male, Indian origin, rhesus monkey, in vivo, 300 mg/kg, Plasma GS-CA1 level, 300 mg/kg s.c.; 0.43 weeks post dose; individual animals; unit inferred
OUTCOME MEASURE: concentration at 0.43 weeks (nM)

>>> measured_result("CC(C)(C#Cc1ccc(-c2ccc(Cl)c3c(NS(=O)(=O)C4CC4)nn(CC(F)F)c23)c([C@H](Cc2cc(F)cc(F)c2)NC(=O)Cn2nc(C(F)F)c3c2C(F)(F)[C@@H]2C[C@H]32)n1)S(C)(=O)=O")
2000

====

Assay: in vivo
Details: male, Indian origin, rhesus monkey, in vivo, sc, 300 mg/kg
OUTCOME MEASURE: half-life (days)

>>> measured_result("CC(C)(C#Cc1ccc(-c2ccc(Cl)c3c(NS(=O)(=O)C4CC4)nn(CC(F)F)c23)c([C@H](Cc2cc(F)cc(F)c2)NC(=O)Cn2nc(C(F)F)c3c2C(F)(F)[C@@H]2C[C@H]32)n1)S(C)(=O)=O")
23.2
